biological target: Nitric oxide synthase 1 (Rattus norvegicus); experiment: Neuronal subtype of Neuronal nitric oxide synthase (nNOS) activity tested on Rat Striatal neurones at the concentration of 10e-7 (M)
observed_property: nNOS activity (%)

{"compound": "COc1ccc(NCc2ccccc2)c(C(=O)CC(NC(C)=O)C(=O)O)c1 (stereo unspecified)", "tgt": "Nitric oxide synthase 1 (Rattus norvegicus)", "units_label": "%", "nNOS activity": 100}
{"compound": "COc1ccc(N)c(C(=O)CC(NC(C)=O)C(=O)O)c1 (stereo unspecified)", "tgt": "Nitric oxide synthase 1 (Rattus norvegicus)", "units_label": "%", "nNOS activity": 65.8}
{"compound": "COc1ccc(N(C)C)c(C(=O)CC(NC(C)=O)C(=O)O)c1 (stereo unspecified)", "tgt": "Nitric oxide synthase 1 (Rattus norvegicus)", "units_label": "%", "nNOS activity": 99.6}
{"compound": "CCCC(=O)NC(CC(=O)c1cccc(OC)c1)C(=O)O (stereo unspecified)", "tgt": "Nitric oxide synthase 1 (Rattus norvegicus)", "units_label": "%", "nNOS activity": 101}
{"compound": "CCCC(=O)NC(CC(=O)c1cc(OC)ccc1N)C(=O)O (stereo unspecified)", "tgt": "Nitric oxide synthase 1 (Rattus norvegicus)", "units_label": "%", "nNOS activity": 77.3}
{"compound": "COc1cccc(C(=O)CC(NC(C)=O)C(=O)O)c1 (stereo unspecified)", "tgt": "Nitric oxide synthase 1 (Rattus norvegicus)", "units_label": "%", "nNOS activity": 87.2}

====

biological target: UniProtKB P29476; experiment: Neuronal subtype of Neuronal nitric oxide synthase (nNOS) activity tested on Rat Striatal neurones at the concentration of 10e-3 (M)
Sequence (P29476 whole entry): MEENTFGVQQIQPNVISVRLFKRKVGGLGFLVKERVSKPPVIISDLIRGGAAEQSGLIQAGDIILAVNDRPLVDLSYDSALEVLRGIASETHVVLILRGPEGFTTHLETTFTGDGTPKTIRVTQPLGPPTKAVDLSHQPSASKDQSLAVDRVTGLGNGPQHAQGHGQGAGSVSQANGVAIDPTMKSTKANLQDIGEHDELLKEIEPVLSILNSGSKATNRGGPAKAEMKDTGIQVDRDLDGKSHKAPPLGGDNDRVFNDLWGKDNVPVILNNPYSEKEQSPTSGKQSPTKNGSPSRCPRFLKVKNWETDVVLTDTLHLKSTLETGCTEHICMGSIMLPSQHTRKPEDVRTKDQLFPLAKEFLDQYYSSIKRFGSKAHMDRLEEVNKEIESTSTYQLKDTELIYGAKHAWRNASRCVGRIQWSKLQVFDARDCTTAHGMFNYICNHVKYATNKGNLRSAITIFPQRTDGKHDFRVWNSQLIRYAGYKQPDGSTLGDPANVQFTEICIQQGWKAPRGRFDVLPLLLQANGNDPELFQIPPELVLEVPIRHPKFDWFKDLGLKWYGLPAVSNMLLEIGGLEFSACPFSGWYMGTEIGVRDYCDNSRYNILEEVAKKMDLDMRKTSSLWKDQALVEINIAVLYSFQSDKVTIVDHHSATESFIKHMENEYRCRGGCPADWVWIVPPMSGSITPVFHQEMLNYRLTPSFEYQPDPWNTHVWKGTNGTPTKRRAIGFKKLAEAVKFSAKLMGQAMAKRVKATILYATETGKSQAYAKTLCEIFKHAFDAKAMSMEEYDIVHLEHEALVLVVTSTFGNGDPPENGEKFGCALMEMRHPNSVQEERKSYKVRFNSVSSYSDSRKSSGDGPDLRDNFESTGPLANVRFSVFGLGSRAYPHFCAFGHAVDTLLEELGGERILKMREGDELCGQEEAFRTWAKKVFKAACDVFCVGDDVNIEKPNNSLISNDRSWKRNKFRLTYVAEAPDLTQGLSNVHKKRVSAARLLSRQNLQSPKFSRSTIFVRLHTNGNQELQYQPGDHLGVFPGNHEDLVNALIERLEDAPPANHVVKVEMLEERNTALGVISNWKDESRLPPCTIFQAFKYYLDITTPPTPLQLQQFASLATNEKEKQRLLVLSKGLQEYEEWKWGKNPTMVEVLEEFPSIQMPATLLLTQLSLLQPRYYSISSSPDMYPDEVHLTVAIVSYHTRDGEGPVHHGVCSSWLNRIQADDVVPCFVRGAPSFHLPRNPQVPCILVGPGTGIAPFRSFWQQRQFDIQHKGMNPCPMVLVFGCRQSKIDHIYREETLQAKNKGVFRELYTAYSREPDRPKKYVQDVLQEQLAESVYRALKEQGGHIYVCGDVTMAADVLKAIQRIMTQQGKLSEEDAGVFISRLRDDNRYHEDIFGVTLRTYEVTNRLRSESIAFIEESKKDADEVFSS
observed_property: nNOS activity (%)

{"molecule": "CCCC(=O)NC(CC(=O)c1cccc(OC)c1)C(=O)O (stereo unspecified)", "tgt": "UniProtKB P29476", "nNOS activity (%)": 105}
{"molecule": "COc1ccc(N(C)C)c(C(=O)CC(NC(C)=O)C(=O)O)c1 (stereo unspecified)", "tgt": "UniProtKB P29476", "nNOS activity (%)": 99}

1 = COc1ccc(NCc2ccccc2)c(C(=O)CC(NC(C)=O)C(=O)O)c1 (stereo unspecified)
2 = COc1ccc(N)c(C(=O)CC(NC(C)=O)C(=O)O)c1 (stereo unspecified) [KYNURENIN]
3 = CCCC(=O)NC(CC(=O)c1cc(OC)ccc1N)C(=O)O (stereo unspecified)
Problem: Ascending by nNOS activity, please. Give the order by naming the labels one after another as requested.
Result: 2, 3, 1
(2: 31.5%, 3: 55%, 1: 100%)

====

target: Nitric oxide synthase 1 (Rattus norvegicus); test: Neuronal subtype of Neuronal nitric oxide synthase (nNOS) activity tested on Rat Striatal neurones at the concentration of 10e-11 (M)
observed_property: nNOS activity (%)

{"molecule": "CCCC(=O)NC(CC(=O)c1cc(OC)ccc1N)C(=O)O (stereo not given)", "nNOS activity, %": 85.8}
{"molecule": "COc1ccc(N)c(C(=O)CC(NC(C)=O)C(=O)O)c1 (stereo not given) [KYNURENIN]", "nNOS activity, %": 78.6}
{"molecule": "COc1ccc(NCc2ccccc2)c(C(=O)CC(NC(C)=O)C(=O)O)c1 (stereo not given)", "nNOS activity, %": 101}
{"molecule": "COc1ccc(N(C)C)c(C(=O)CC(NC(C)=O)C(=O)O)c1 (stereo not given)", "nNOS activity, %": 100}
{"molecule": "COc1cccc(C(=O)CC(NC(C)=O)C(=O)O)c1 (stereo not given)", "nNOS activity, %": 92.7}
